Assign CTLA4 MFI at 33.3 nM to each entry below.
# studyTarget: huCTLA4 (Homo sapiens, UniProt P16410)
# Sequence (P16410 36-223): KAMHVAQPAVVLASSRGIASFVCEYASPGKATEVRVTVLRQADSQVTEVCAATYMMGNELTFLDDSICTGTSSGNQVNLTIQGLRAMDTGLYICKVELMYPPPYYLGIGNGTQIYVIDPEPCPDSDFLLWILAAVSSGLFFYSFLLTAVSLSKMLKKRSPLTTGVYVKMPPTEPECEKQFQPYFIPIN
# experimentalDetails: Flow binding to CHO cells stably expressing CTLA4
# Set-up: huCTLA4 and huPD-L1, full-length mammalian surface expression constructs were generated; expressed in transfected cells; host or cells: CHO cells, lentiviral transduction, sorted to >98% purity
# measurementSetup: Table E10; 33.3 nM; CHO cells stably expressing CTLA4
Keep the answer to the number alone.

Record request: CTLA4 MFI at 33.3 nM value, item H18Y/E35D (protein) VIHVTKEVKEVATLSCGYNVSVEELAQTRIYWQKDKKMVLTMMSGDMNIWPEYKNRTIFDITNNLSIVILALRPSDEGTYECVVLKYEKDAFKREHLAEVTLSVKAD
26258

Please report the recorded CTLA4 MFI at 33.3 nM for E35D/M43I/D46E/A71G/L85M (protein) VIHVTKEVKEVATLSCGHNVSVEELAQTRIYWQKDKKMVLTMISGEMNIWPEYKNRTIFDITNNLSIVILGLRPSDEGTYECVVMKYEKDAFKREHLAEVTLSVKAD .
26878

Recorded CTLA4 MFI at 33.3 nM of E35D/M47L/A71G (protein) VIHVTKEVKEVATLSCGHNVSVEELAQTRIYWQKDKKMVLTMMSGDLNIWPEYKNRTIFDITNNLSIVILGLRPSDEGTYECVVLKYEKDAFKREHLAEVTLSVKAD , please.
20576

CTLA4 MFI at 33.3 nM for E35D/D46E (protein) VIHVTKEVKEVATLSCGHNVSVEELAQTRIYWQKDKKMVLTMMSGEMNIWPEYKNRTIFDITNNLSIVILALRPSDEGTYECVVLKYEKDAFKREHLAEVTLSVKAD ?
27921

Which CTLA4 MFI at 33.3 nM reading was recorded for the molecule E35D/M47L/A71G/L85M (protein) VIHVTKEVKEVATLSCGHNVSVEELAQTRIYWQKDKKMVLTMMSGDLNIWPEYKNRTIFDITNNLSIVILGLRPSDEGTYECVVMKYEKDAFKREHLAEVTLSVKAD ?
16609

Find the recorded CTLA4 MFI at 33.3 nM belonging to E35D/D46E/A91G (protein) VIHVTKEVKEVATLSCGHNVSVEELAQTRIYWQKDKKMVLTMMSGEMNIWPEYKNRTIFDITNNLSIVILALRPSDEGTYECVVLKYEKDGFKREHLAEVTLSVKAD and report it.
32189

If you can, please state the reported CTLA4 MFI at 33.3 nM value of E35D/M43I/M47L/L85M (protein) VIHVTKEVKEVATLSCGHNVSVEELAQTRIYWQKDKKMVLTMISGDLNIWPEYKNRTIFDITNNLSIVILALRPSDEGTYECVVMKYEKDAFKREHLAEVTLSVKAD .
24584

Entry under review: D46V/M47I/A71G (protein) VIHVTKEVKEVATLSCGHNVSVEELAQTRIYWQKEKKMVLTMMSGVINIWPEYKNRTIFDITNNLSIVILGLRPSDEGTYECVVLKYEKDAFKREHLAEVTLSVKAD . Reported CTLA4 MFI at 33.3 nM?
28420
